- study-system: PI3K δ (Homo sapiens, UniProt O00329)
- Construct: purchased Upstate / Millipore Corporation
- Sequence (O00329 whole entry): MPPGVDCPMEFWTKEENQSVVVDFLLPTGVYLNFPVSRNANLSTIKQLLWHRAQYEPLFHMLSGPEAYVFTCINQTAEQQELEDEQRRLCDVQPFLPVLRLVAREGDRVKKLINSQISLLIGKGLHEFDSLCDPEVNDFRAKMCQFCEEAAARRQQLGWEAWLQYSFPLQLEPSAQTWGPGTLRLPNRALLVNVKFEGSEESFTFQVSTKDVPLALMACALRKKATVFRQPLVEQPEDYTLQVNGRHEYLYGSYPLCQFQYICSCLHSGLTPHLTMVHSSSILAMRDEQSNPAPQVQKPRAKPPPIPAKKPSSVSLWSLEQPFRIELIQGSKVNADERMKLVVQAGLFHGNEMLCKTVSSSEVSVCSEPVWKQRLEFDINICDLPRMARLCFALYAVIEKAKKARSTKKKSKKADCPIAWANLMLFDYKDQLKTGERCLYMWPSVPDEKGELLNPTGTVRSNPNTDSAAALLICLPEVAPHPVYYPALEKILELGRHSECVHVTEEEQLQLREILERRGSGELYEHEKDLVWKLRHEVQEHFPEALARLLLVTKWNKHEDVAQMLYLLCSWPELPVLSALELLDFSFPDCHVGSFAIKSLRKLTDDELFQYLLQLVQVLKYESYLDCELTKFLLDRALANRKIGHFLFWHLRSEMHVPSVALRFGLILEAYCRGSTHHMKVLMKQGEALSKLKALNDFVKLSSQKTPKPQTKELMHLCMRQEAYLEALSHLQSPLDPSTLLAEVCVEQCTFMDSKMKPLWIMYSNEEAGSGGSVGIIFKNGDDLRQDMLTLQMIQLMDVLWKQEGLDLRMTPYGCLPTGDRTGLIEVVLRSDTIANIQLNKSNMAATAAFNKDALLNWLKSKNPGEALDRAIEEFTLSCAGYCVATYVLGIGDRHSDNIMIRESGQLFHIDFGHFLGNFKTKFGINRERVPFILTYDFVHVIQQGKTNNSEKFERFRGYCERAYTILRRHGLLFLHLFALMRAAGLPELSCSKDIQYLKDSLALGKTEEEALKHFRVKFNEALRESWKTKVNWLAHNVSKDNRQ
- Sequence (P27986 whole entry partner): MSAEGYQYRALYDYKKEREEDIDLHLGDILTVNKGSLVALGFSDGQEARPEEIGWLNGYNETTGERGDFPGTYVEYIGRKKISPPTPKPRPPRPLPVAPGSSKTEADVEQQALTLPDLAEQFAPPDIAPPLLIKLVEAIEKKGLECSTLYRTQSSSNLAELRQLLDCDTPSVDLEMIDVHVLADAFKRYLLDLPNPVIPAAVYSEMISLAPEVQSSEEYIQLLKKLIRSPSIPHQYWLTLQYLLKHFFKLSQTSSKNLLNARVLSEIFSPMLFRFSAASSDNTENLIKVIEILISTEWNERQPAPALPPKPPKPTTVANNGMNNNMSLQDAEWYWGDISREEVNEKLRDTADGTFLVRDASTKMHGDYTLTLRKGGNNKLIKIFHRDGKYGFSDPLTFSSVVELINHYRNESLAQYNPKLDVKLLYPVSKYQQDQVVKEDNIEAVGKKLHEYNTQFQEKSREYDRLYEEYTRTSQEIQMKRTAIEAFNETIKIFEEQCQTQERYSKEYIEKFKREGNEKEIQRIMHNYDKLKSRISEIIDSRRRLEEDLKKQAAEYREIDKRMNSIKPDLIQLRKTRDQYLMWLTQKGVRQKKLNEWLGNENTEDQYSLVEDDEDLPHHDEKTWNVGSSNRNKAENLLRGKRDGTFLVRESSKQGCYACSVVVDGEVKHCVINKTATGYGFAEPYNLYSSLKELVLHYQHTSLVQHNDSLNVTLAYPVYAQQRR
- assay-remarks: PI 3-Kinase (human) HTRF assay, PI3K δ
- Type: biochemical
- cond: read-out: PI3K δ IC50
pIC50: −log10 of the molar value.
The molecules listed here are annotated with their pIC50.

| query-smiles | pIC50 |
| --- | --- |
| Cc1nccn1-c1cnc2ccc(-c3ccc4oc(N)nc4c3)cc2n1 | > 5.00 |
| Nc1nc2cc(-c3ccc4nnc(C(=O)N5CCOCC5)n4c3)ccc2o1 | < 5.00 |
| Nc1nc2ccc(-c3ccc4ncc(C(=O)N5CCOCC5)n4c3)cc2o1 | < 5.00 |
| COc1ncc(-c2ccc3ncc(C(=O)N4CCOCC4)n3c2)cc1NS(=O)(=O)c1cccnc1 | > 7.00 |
| CC1(C)CN(C(=O)c2cnc3ccc(-c4ccc5oc(N)nc5c4)cn23)CCO1 | < 5.00 |
| CNC(=O)N1CCN(c2cnc3ccc(-c4ccc5oc(N)nc5c4)cc3n2)CC1 | > 5.00 |
| CN1CCN(C2CN(c3cnc4ccc(-c5ccc6oc(N)nc6c5)cc4n3)C2)CC1 | > 5.00 |
| Cc1c(-c2ccc3oc(N)nc3c2)ccc2ncc(N3CCN[C@@H](C)C3)nc12 | > 5.00 |
| CNC(=O)C1CN(c2cnc3ccc(-c4ccc5oc(N)nc5c4)cc3n2)C1 | > 5.00 |
| Nc1nc2cc(-c3ccc4ncc(NC5CCOCC5)nc4c3)ccc2o1 | > 6.00 |
